Ref: patent US20210380703A1

TARGET SYSTEM: human Fc (human)
MEASUREMENT DESCRIPTION: ELISA; negative control
ASSAY READOUT: optical density (OD)
Kindly provide the numeric value in OD only, without the unit symbol.

Look up optical density for this binder: 376_B06 (antibody, V domains shown) VH: EVQLLESGGGLVQPGGSLRLSCAASGFTFSSYSMNWVRQAPGKGLEWVAGINYNSGYKGYADSVKGRFTISRDNSKNTLYLQMNSLRAEDTAVYYCARSATWHDTHLDYWGQGTLVTVSS VL: DIQMTQSPSSLSASVGDRVTITCRASQSILTYLNWYQQKPGKAPKLLIYAATSRASGVPSRFSGSGSGTDFTLTISSLQPEDFATYYCQQSYDLPLTFGGGTKVEIK 0.222

GET /values?readout=optical density&item= 369_B02 (antibody, V domains shown) VH: EVQLLESGGGLVQPGGSLRLSCAASGFTFDSYSMNWVRQAPGKGLEWVSGINYNGGYKSYADSVKGRFTISRDNSKNTLYLQMNSLRAEDTAVYYCARSATWHDTHLDYWGQGTLVTVSS VL: DIQMTQSPSSLSASVGDRVTITCRASQSILSYLNWYQQKPGKAPKLVIYAATSRASGVPSRFSGSGSGTDFTLTISSLQPEDFATYYCQQSYNLPLTFGGGTKVEIK 0.456

What measured optical density goes with 375_E07 (antibody, V domains shown) VH: EVQLLESGGGLVQPGGSLRLSCAASGFTFSDYSMNWVRQAPGKGLEWVAGINYNSGYKGYADSVKGRFTISRDNSKNTLYLQMNSLRAEDTAVYYCARSANWHDTALDYWGQGTLVTVSS VL: DIQMTQSPSSLSASVGDRVTITCRASQSIVTYLNWYQQKPGKAPKLLIYVVTNRESGVPSRFSGSGSGTDFTLTISSLQPEDFATYYCQQSYETPLTFGGGTKVEIK ? 0.158
